# SYSTEM NAME: T1, human Prostate Specific Membrane Antigen (PSMA) (human, UniProt Q04609 1-750)
# T1 construct: whole, on cells; also called Glutamate Carboxypeptidase II; FOLH1
# T1 sequence (Q04609 whole entry): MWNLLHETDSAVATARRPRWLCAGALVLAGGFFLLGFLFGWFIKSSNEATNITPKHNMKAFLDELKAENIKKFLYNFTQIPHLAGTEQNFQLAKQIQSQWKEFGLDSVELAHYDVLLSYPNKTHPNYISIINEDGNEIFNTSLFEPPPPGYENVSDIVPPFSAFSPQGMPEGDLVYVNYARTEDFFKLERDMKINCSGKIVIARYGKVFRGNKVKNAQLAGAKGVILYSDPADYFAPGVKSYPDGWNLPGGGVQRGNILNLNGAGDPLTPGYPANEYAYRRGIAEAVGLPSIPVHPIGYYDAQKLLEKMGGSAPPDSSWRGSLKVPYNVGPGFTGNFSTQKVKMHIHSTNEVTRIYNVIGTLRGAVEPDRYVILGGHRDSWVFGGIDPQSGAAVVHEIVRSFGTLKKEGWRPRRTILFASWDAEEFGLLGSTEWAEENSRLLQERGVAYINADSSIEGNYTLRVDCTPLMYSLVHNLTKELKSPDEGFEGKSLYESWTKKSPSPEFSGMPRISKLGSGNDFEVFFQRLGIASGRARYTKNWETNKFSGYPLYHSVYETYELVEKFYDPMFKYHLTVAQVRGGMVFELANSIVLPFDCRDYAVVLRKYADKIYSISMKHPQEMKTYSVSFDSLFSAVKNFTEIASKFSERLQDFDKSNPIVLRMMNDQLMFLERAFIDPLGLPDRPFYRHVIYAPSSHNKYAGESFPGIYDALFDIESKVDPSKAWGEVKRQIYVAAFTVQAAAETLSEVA
# ASSAY NAME: flow cytometry on LNCaP cells
MEASUREMENT KIND: fold over background MFI (fold over background)
Answer in fold over background, number only, no unit symbol.

Below are worked cases with known answers.
| BINDER | UNIT SYMBOL | REPORTED VALUE |
| --- | --- | --- |
| anti-PSMA heavy-chain antibody (HCAb) clone ID 326109 (antibody, V domains shown, Heavy chain-only antibody (UniAb)) VH: QLQLQESGPGLVKPSETLSLTCTVSGGSISSNSYYWGWIRQSPGKGLEWLGSIYDSGSTHYNPSLKSRVIISGDTSKNQFSLKLSSVTAADTAVYYCARHKAATADFDYRGQGTLVTVSS | fold over background | 25 |
| anti-PSMA heavy-chain antibody (HCAb) clone ID 345463 (antibody, V domains shown, Heavy chain-only antibody (UniAb)) VH: QVQLVESGGGVVQPGRSLRLSCAASGFIFRSYGMHWVRQAPGKGPEWVAVIWYDGSNKYYADSVKGRFTISRDNSKNTLYLQMNSLRAEDTAVYYCAREPRIGYYYESSGYYSLDYRGQGTLVTVSS | fold over background | 68 |
| anti-PSMA heavy-chain antibody (HCAb) clone ID 326116 (antibody, V domains shown, Heavy chain-only antibody (UniAb)) VH: QVQLVESGGGVVQPGRSLRLSCAASGFSFSRYGMHWVRQAPGKGLEGVAVISYDGSNKYYADSVKGRFTISRDYSKNTLYLQMNSLRAEDTAVYYCAREPRIGYYYDSSGYDSLDYRGQGTLVTVSS | fold over background | 38 |

Determine its reported fold over background MFI: anti-PSMA heavy-chain antibody (HCAb) clone ID 325742 (antibody, V domains shown, Heavy chain-only antibody (UniAb)) VH: QVQLVESGGGVVQPGRSLRLSCAASGFSFSSYGMHWVRQAPGKGLEWVAVIWYDGSNKYYADSVKGRFTISRDYSKNTLYLQMNSLRAEDTAVYYCAREPRIGYYYESSGYDSLDYRGQGTLVTVSS
200
